tested on: CP215; assay: qHTS profiling for inhibitors of Plasmodium falciparum proliferation (AID 504749); note: nearly all actives have a fitted effect of over 60% in size; details: P. falciparum in erythrocytes, SYBR Green DNA, 72 h; series mostly up to 28.7 µM
Records with an inconclusive call do not appear. Calls of active or inactive are those of the source. Calls come from the whole dose curve; as a rule, active = well fitted inhibition curve with a large enough effect; inconclusive = small, poorly fitted or top-dose-only effect; inactive = flat fitted curve, though single readings scatter.
Allowed answers: yes (active), no (inactive)

Here's what some known entries look like.
Molecule	Label
Nc1nc(/C(=C/CC(=O)O)C(=O)NC2C(=O)N3C(C(=O)O)=CCSC23)cs1 (centres undefined)	no
CC1OC(OC2CCC3(C)C(CCC4C3CC(O)C3(C)C(C5=CC(=O)OC5)CCC43O)C2)CC(O)C1OC1CC(O)C(OC2CC(O)C(OC3OC(CO)C(O)C(O)C3O)C(C)O2)C(C)O1 (centres undefined)	no
CC1CCC(C(C)C)C(O)C1 (centres undefined)	no

Please examine the following record next.
Incoming: Per the assay record, what outcome was assigned to CCC(=O)O[C@]1(C(=O)CCl)[C@@H](C)CC2C3C[C@H](F)C4=CC(=O)C=CC4(C)[C@@]3(F)C(O)CC21C (some centres undefined) ?
Outgoing: yes

---

assay: Cell Viability - LYMP2-005 (AID 967); settings: LYMP2-005 lymphoblastoid cell viability; series mostly up to 92.2 µM;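 note: cells exposed to compound for 24 h at 37 °C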
Records with an inconclusive call do not appear. Calls of active or inactive are those of the source. The call rests on the fitted dose curve; in most records, active means well fitted cell-killing curve with a large enough effect; inconclusive means small, poorly fitted or top-dose-only effect, or effect the other way; inactive means no such curve, though single readings can be large or run the other way.
API: response.call in active, inactive

Worked examples, 5 compounds total:
> print(dat)
                                   compound     label
1      c1ccc2c(c1)ccc1cc3c(ccc4ccccc43)cc12  inactive
2                            C=C(C)c1ccccc1  inactive
3  O=C1OC(O)C(C(Cl)Cl)=C1Cl (centres undefined)    active
4  C/C=C1\C(=O)C[C@H]2[C@@H]3CCC4=CC(=O)CC[C@]4(C)[C@H]3CC[C@]12C  inactive
5        c1ccc2c(c1)-c1cccc3c1c-2cc1ccccc13  inactive

Incoming: I would be grateful if you could indicate the recorded call for O=[N+]([O-])c1cc([N+](=O)[O-])c2ccc(S(=O)(=O)O)cc2c1O .
Outgoing: inactive

Incoming: Now consider ClC1=C(Cl)C(Cl)(Cl)C(Cl)=C1Cl and answer again.
Outgoing: inactive

Incoming: Entry to check: O=C(/C=C/c1ccc(O)c(O)c1)OC1C[C@](O)(C(=O)O)C[C@@H](O)[C@H]1O (some centres undefined)
Outgoing: inactive

Incoming: Please answer likewise for Cc1cc(Nc2ccc(O)cc2)ccc1N
Outgoing: active

---

test: qHTS for Inhibitors of Plasmodium falciparum (HB3) proliferation (AID 504318); note: nearly all actives have a fitted effect of over 60% in size; conditions: P. falciparum HB3 in erythrocytes, SYBR Green DNA, 72 h; series mostly up to 7.21 µM
Records with an inconclusive call do not appear. Activity calls are given as the source filed them. The call rests on the fitted dose curve; in most records, active means well fitted inhibition curve with a large enough effect; inconclusive means small, poorly fitted or top-dose-only effect; inactive means flat fitted curve, though single readings scatter.
Field 'call' accepts Y (active), N (inactive)

> print(dat)
                                   compound  label
1  CCCC[C@]12Cc3c(ccc4ccccc34)[C@H](O1)C1=C(O2)C(=O)c2ccccc2C1=O      Y
2  COC(=O)CCCC1=CC2=C(c3ccccc3)C(=O)C(C)(OC(=O)C3CCCC3)C(=O)C2=CN1CC1CC1 (centres undefined)      N
3  CC#CCN1c2ccccc2[C@]23C[C@@H](C(=O)OC)N(C(=O)COCc4ccccc4)C2=NC(C(=O)OC)=C(C(=O)OC)[C@H]13      N

Now for a further compound.
Incoming: Called result for COC(=O)C1=C(C)N(Cc2ccccc2)C(=S)NC1c1cccc(F)c1 (centres undefined)
Outgoing: N

---

system: PAD; assay: qHTS profiling for inhibitors of Plasmodium falciparum proliferation (AID 504749); note: nearly all actives have a fitted effect of over 60% in size; conditions: P. falciparum in erythrocytes, SYBR Green DNA, 72 h; series mostly up to 28.7 µM
Inconclusive results are not listed. Activity calls are given as the source filed them. Calls follow the shape of the dose curve; as a rule, active = well fitted inhibition curve with a large enough effect; inconclusive = small, poorly fitted or top-dose-only effect; inactive = flat fitted curve, though single readings scatter.
Reply using exactly one outcome from active, inactive

Known results for molecules:
Molecule	Label
Cc1ccc(/C=C2/C(=O)C3(C)CCC2C3(C)C)cc1 (configuration not stated)	inactive
CC(=O)CC(c1ccccc1)C1C(=O)Oc2ccccc2C1=O (configuration not stated)	inactive
Nc1nc2[nH]cc(CCc3ccc(C(=O)NC(CCC(=O)O)C(=O)O)cc3)c2c(=O)[nH]1 (configuration not stated)	active
CC(CCC(=O)O)C1CCC2C3C(=O)C[C@@H]4CC(=O)CC[C@@]4(C)C3CC(=O)[C@]12C (some centres not stated)	inactive
COc1ccc2cc1Oc1cc3c(cc1OC)CC[N+](C)(C)C3Cc1ccc(cc1)Oc1c(OC)c(OC)cc3c1C(C2)[N+](C)(C)CC3 (configuration not stated)	inactive

Incoming: // return assay outcome for C/C1=C2/[N-]C(C(CC(N)=O)[C@@]2(C)CCC(=O)NCC(C)OP(=O)([O-])O[C@H]2[C@@H](O)[C@@H](n3cnc4cc(C)c(C)cc43)O[C@@H]2CO)[C@]2(C)N=C(/C(C)=C3N=C(/C=C4N=C1C(CCC(N)=O)C\4(C)C)[C@@H](CCC(N)=O)[C@]\3(C)CC(N)=O)[C@@H](CCC(N)=O)[C@]2(C)CC(N)=O.CC(=O)O.[Co] (some centres not stated)
Outgoing: inactive

Incoming: Could you do the same for C=C1C(=O)O[C@@H]2[C@@H]1CC/C(C)=C\CC[C@@]1(C)O[C@H]21 , please?
Outgoing: inactive

---

target: Thyroid hormone receptor beta (Homo sapiens); test: qHTS assay for small molecule antagonists of thyroid hormone receptor beta signaling (AID 588547); conditions: TR-UAS-bla HEK293, beta-lactamase ratio, antagonist mode, 18 h;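 note: cells stimulated with 0.4 nM T3 agonist during compound exposure; % is set by controls: 0 for no effect and ±100 for the full control effect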
Results filed as inconclusive are left out.
Answer each item with its documented activity change % (negative = inhibition).
One number for each entry, in %.

Chemical structure	Value unit	Numeric value
CN(C)c1ccc(C2(c3ccc(N(C)C)cc3)OC(=O)c3cc(N(C)C)ccc32)cc1	%	12.5
CCCCCC/C(C=O)=C\c1ccccc1	%	8.8
O=Cc1ccc(Cl)c(Cl)c1	%	11
CO[C@H]1/C=C/O[C@@]2(C)Oc3c(C)c(O)c4c(O)c(c5c(c4c3C2=O)NC2(CCN(CC(C)C)CC2)N=5)=NC(=O)/C(C)=C\C=C\[C@H](C)[C@H](O)[C@@H](C)[C@@H](O)[C@@H](C)[C@H](OC(C)=O)[C@@H]1C	%	5.09

In the following, a different compound is considered.
Incoming: Field request: activity change % (negative = inhibition) | item: Cc1ccc(S(=O)(=O)Oc2ccc(N=Nc3ccc(-c4ccc(N=Nc5c(O)ccc6cc(S(=O)(=O)O)cc(S(=O)(=O)O)c56)c(C)c4)cc3C)cc2)cc1
Outgoing: 6.13

---

experiment: qHTS assay for small molecule disruptors of the mitochondrial membrane potential - 1 hr assay (AID 651754); conditions: series mostly up to 92.2 µM; note: nearly all actives have a fitted effect of over 35% in size
Results filed as inconclusive are left out. Active and inactive are the calls of the source. Calls follow the shape of the full dose curve.
Bench note: report the call from active, inactive

See these solved cases before continuing.
> print(dat)
                                   compound     label
1             ClC1=C(Cl)C(Cl)(Cl)C(Cl)=C1Cl  inactive
2      Oc1ccc2cc(SSc3ccc4cc(O)ccc4c3)ccc2c1    active
3  Cc1cc(O)c(C(C)(C)C)cc1Sc1cc(C(C)(C)C)c(O)cc1C    active

Incoming: Given O=[N+]([O-])c1cc([N+](=O)[O-])c2ccc(S(=O)(=O)O)cc2c1O , state the outcome it received in this test.
Outgoing: inactive

Incoming: Can you check CC(=O)Nc1ccc(C(=O)CCl)cc1 next?
Outgoing: inactive

---

Tested on: FAB9
Test: qHTS profiling for inhibitors of Plasmodium falciparum proliferation (AID 504749); note: nearly all actives have a fitted effect of over 60% in size
Conditions: P. falciparum in erythrocytes, SYBR Green DNA, 72 h; series mostly up to 28.7 µM
Protocol: NIH National Institute of Allergy and Infectious Diseases [NIAID] NIH Chemical Genomics Center [NCGC] […] Because mature erythrocytes lack DNA, only Plasmodium-derived DNA is detected. NCGC Assay Protocol Summary: The SYBR Green viability assay was adapted from a method described previously (Plouffe et al., 2008). […] The following morning, fluorescence intensity at 485(14) nm excitation and 535(25) nm emission wavelengths was measured on an EnVision (Perkin Elmer) plate reader. […]
Records with an inconclusive call do not appear. The source made the active and inactive calls. The call rests on the fitted dose curve; in most records, active means well fitted inhibition curve with a large enough effect; inconclusive means small, poorly fitted or top-dose-only effect; inactive means flat fitted curve, though single readings scatter.
Property label: outcome

// below: answered molecules
Molecule	outcome
CNC(=O)C(N)CSC(C)C1=C(C)c2cc3[n-]c(cc4nc(cc5[n-]c(cc1n2)c(C)c5CCC(=O)O)C(CCC(=O)O)=C4C)c(C)c3C(C)SCC(N)C(=O)NC.[Fe+2] (centres undefined)	inactive
C[C@H](CN1c2ccccc2Sc2cccnc21)N(C)C	inactive
OCC1O[C@H](O[C@H]2C(O)C(O)C(O)O[C@@H]2CO)C(O)C(O)C1O (some centres undefined)	inactive
O=C(O)[C@H]1C[C@@H](CP(=O)(O)O)CCN1	inactive
C=C1CC2C3C=C(C)C4=CC(=O)CCC4(C)C3CCC2(C)[C@@]1(OC(C)=O)C(C)=O (some centres undefined)	inactive
CC1(C)SC2[C@@H](N=CN3CCCCCC3)C(=O)N2[C@H]1C(=O)O (some centres undefined)	inactive
COc1cccc(OC)c1C(=O)NC1C(=O)N2C1SC(C)(C)C2C(=O)O (centres undefined)	inactive
CCCC(=O)Nc1c(I)cc(I)c(C[C@H](CC)C(=O)O)c1I	inactive

I would be grateful if you could provide outcome for each of the following entries.
1. NC(=O)C1CC2(NC(=O)NC2=O)c2cc(F)ccc2O1 (centres undefined)
2. COc1ccc(S(=O)(=O)N2c3ccc(Cl)cc3[C@](O)(c3ccccc3Cl)[C@@H]2C(=O)N2CCC[C@H]2C(N)=O)cc1OC
3. COC(=O)C1C2CC3c4[nH]c5cc(OC)ccc5c4CCN3CC2CC(OC)C1OC (centres undefined)
4. C/C=C1/NN(CCCN2CCN(c3cccc(Cl)c3)CC2)C(=O)N1CCOc1ccccc1
5. C[C@]12CC[C@@H]3c4ccc(O)cc4CC[C@H]3[C@@H]1CCC2OC(=O)CCC1CCCC1 (some centres undefined)
6. CC1(C)SC2C(NC(=O)C(C(=O)O)c3ccccc3)C(=O)N2C1C(=O)O (centres undefined)

Outgoing:
1. inactive
2. inactive
3. inactive
4. inactive
5. inactive
6. inactive
